tested on: DeltatarO mutant; assay: S. aureus survival, RN4220 and DeltatarO strains – OD600, teichoic acid synthesis inhibitors, primary screen (AID 463173); conditions: S. aureus RN4220 wild type/DeltatarO growth, OD600, 18 h, screened at 18.75 µg/mL (by protocol)
The campaign covered roughly 52,000 compounds. About 4,300 (8.3%) were called active. Cut-off read from the data, not from the text of the source: active = survival mostly below about 52% (no sharp cut-off); inactive = mostly above about 56%. This excerpt belongs to a sample that is enriched for actives.
// classify into active, inactive

GET /call?item= Cc1cccc(Cn2cc(S(=O)(=O)c3ccccc3)c(=O)c3cc(F)c(N4CCOCC4)cc32)c1 returns the recorded outcome of this test.
inactive

Write down the call the test reported for this molecule. Item: CC1=C(C(=O)Nc2cccc(C(F)(F)F)c2)C2(CCCCCC2)OC1=O
active

Record lookup: outcome of this test for CC1CCN(C(=O)c2cnn(-c3ccc(Cl)cc3)c2C2CCN(C(=O)OC(C)(C)C)CC2)CC1 ?
inactive

For this molecule, state the assay outcome: CC1=C(C(=O)NCc2cccc(Br)c2)C2(CCCCC2)OC1=O
inactive

Call for entry CCCC(=O)N1CCCC(c2nc(-c3ccc(C(C)C)cc3)no2)C1 (stereo unspecified) :
inactive

GET /call?item= CC1=C(C(=O)Nc2cccc(Cl)c2C)C2(CCCCCC2)OC1=O returns the recorded outcome of this test.
active

Recorded call for CC(C)c1ccc(-c2noc(C3CCCN(C(=O)Cc4cccs4)C3)n2)cc1 (stereo unspecified) ?
active

Outcome? CC(=O)N1CCC2(CC1)OC(=O)C(C)=C2C(=O)Nc1cccc(Cl)c1C
inactive

Given Cc1cc(C(=O)c2cccs2)c(N)s1 , state the outcome it received in this test.
active

Recorded test call requested for CC(C)c1ccc(-c2noc(C3CCCN(C(=O)c4ccccc4)C3)n2)cc1 (stereo unspecified)
inactive

Status in this test for COc1ccc(-c2nc3sc(CCNC(=O)c4cc(OC)c(OC)c(OC)c4)c(C)n3n2)cc1 ?
inactive

Call for entry Cc1nnc(SCC(=O)Nc2ccc(N(C)C)cc2)[nH]c1=O :
inactive

Call for entry COc1ccc(OC)c(CCNc2nc3ccccc3c3nc(-c4cccnc4)nn23)c1 :
inactive

Hi, do you know how CCNC(=O)C1CCCN(c2ncnc3onc(C)c23)C1 (stereo unspecified) came out in this test?
inactive

Please state the recorded outcome for this molecule: COc1cc2nc(NCc3ccccc3Cl)n3nc(-c4cccnc4)nc3c2cc1OC
inactive

Recorded call for CC1=C(C(=O)NCc2cccc(F)c2)C2(CCCCC2)OC1=O ?
active

----------
system: DeltatarO mutant; assay: S. aureus survival, RN4220 and DeltatarO strains – OD600, teichoic acid synthesis inhibitors, primary screen (AID 463173); settings: S. aureus RN4220 wild type/DeltatarO growth, OD600, 18 h, hits give low values, screened at 18.75 µg/mL (by protocol)
About 4,300 (8.3%) of roughly 52,000 compounds were called active. The sample holds actives, similar compounds and a random draw of the others, so the mix is not that of the screen.
Class (required): determined from survival; valid ranges are low class (below 60%), middle class (60% to below 80%), high class (80% or more)

Would you mind sorting CCOc1ccc(CCNC(=O)c2cc3c(=O)n(C)c4ccccc4c3s2)cc1OCC into the appropriate category?
low class

Exercise: read the entry CCC(Cc1ccccc1)NC(=O)c1cccc(Nc2nc3ccccc3nc2-n2nc(C)cc2C)c1 (centres undefined) and state which class it falls under.
middle class

Bin this entry: CCc1cccc(NC(=O)CSc2nc3ccccc3nc2N2CCCCC2)c1
low class

Just checking, what class would you give COc1ccc(N2CC(NC(=O)c3c(F)cccc3Cl)CC2=O)cc1OC (centres undefined) here?
high class

Just checking, what class would you give CCc1ccc2c(c1)NC(c1cccnc1)=NC(c1ccc(C(C)(C)C)cc1)=N2 here?
middle class

Which of the defined bands does the recorded survival of CCCCc1ccc(NC(=O)CSc2nc3ccccc3nc2N2CCCCC2)cc1 sit within?
low class

Would you mind sorting CCOc1ccccc1NC(=O)CSc1nc2ccccc2nc1N1CCOCC1 into the appropriate category?
low class

Categorize the following entry: COc1ccc(CNC(=O)CCS(=O)(=O)c2cc3c4c(c2)CCN4C(=O)CC3)cc1OC
middle class

Class for CCCCc1ccc(NC(=O)CSc2nc3ccccc3nc2N2CCOCC2)cc1 ?
low class

For CC(=O)Nc1ccc(NC(=O)CSc2nc3ccccc3nc2N2CCOCC2)cc1 , which survival bin applies?
high class

Category of CCOc1cccc(NC(=O)C2CC(=O)N(CC)C(=Nc3ccc(F)cc3)S2)c1 (centres undefined) :
low class

Lab note: which band did CCC(C(=O)Nc1cccc(-c2nc3cccnc3s2)c1C)c1ccccc1 (centres undefined) land in?
high class

Note: place this compound into its band. Item: COc1ccc(NC(=O)c2cc3cc(C)ccc3[nH]2)cc1
high class

# classify by survival band: Cc1cccc(NC(=O)CSc2nc3ccccc3nc2N2CCOCC2)c1C
low class

Just checking, what class would you give COc1ccc(OC)c(NC(=O)C(C)n2nc(C)c3c(C)n(-c4ccccc4)nc3c2=O)c1 (centres undefined) here?
high class

Lab note: which band did CNc1oc(-c2ccc(COc3ccc(C)cc3)o2)nc1C#N land in?
middle class

In plain terms, what class is Cc1ccc(NC(=O)CSc2ccc(-c3cccs3)nn2)cc1Cl ?
high class

Returns: class label. Input: Cc1cc(C)n(-c2nc3ccccc3nc2Nc2cc(C(=O)O)ccc2C)n1
low class

Exam item: assign Cc1ccc(C)c(NC(=O)Cn2cc(C(=O)c3ccco3)c3ccccc32)c1 to the correct category.
middle class

# bin label for CCC(C(=O)Nc1cc(-c2cn3cccnc3n2)ccc1C)c1ccccc1 (centres undefined)
high class

Which bin, given its survival, does CCC(CC)C(=O)Nc1cc(-c2nc3cccnc3s2)ccc1C occupy?
low class

Hi there! Could you help me figure out the category for Cc1cc(C)n(-c2nc3ccccc3nc2Nc2ccc(Cl)c(C(=O)OC(C)C)c2)n1 please?
high class

Which class is correct for the following compound? Cc1ccc(-c2nc3cccnc3s2)cc1NC(=O)C(C)C
high class

Which of the defined bands does the recorded survival of COc1ccc(Cc2nnc(SCC(=O)N3CCCC3)o2)cc1 sit within?
high class

Using the reported survival, which band applies to CCOc1ccccc1NC(=O)C(=O)c1cc(C)n(-c2ccc(F)cc2)c1C ?
high class

Which survival category applies to CC(C)(C)c1ccc(-c2nc(SCC(=O)Nc3ccc(Cl)cc3)[nH]c(=O)c2C#N)cc1 here?
low class

Sort into band: CCC(C(=O)Nc1cc(-c2nc3cccnc3s2)ccc1C)c1ccccc1 (centres undefined)
low class

Please report the category associated with CCOc1ccc(NC(=O)CSc2nc3ccccc3nc2N2CCOCC2)cc1 , nothing else.
high class

Lab note: sort CCCCc1ccc(NC(=O)CSc2nc(=O)[nH]c3c2CCCC3)cc1 into the matching survival band.
middle class

----------
tested on: DeltatarO mutant; experiment: S. aureus survival, RN4220 and DeltatarO strains – OD600, teichoic acid synthesis inhibitors, primary screen (AID 463173); conditions: S. aureus RN4220 wild type/DeltatarO growth, OD600, 18 h, hits give low values, screened at 18.75 µg/mL (by protocol)
Out of some 52,000 compounds screened, about 4,300 (8.3%) were called active. This is one part of a sample in which actives are shown more often than they occur.
# strict inequality: survival < 80% yields criterion met, everything else yields criterion not met

survival under 80%? Item: CC1=C(C(=O)Nc2cccc(C(F)(F)F)c2)C(c2ccccc2)n2ncnc2N1 (stereo unspecified)
criterion not met

Below 80% on survival? Entry CC(=O)c1ccc(N2CCN(S(=O)(=O)c3cc(-c4onc(C)c4C)ccc3C)CC2)cc1
criterion not met

Bench note: check whether Cc1ccc(Nc2cc(C)c(C#N)c3nc4ccccc4n23)c(C)c1 shows survival below 80%
criterion met

Just wondering, is survival of CC1CCc2onc(C(=O)N3CCN(c4ccccc4)CC3)c2C1 (stereo unspecified) below 80%?
criterion not met

Strictly below 80%: is that where survival of COc1ccc(Cl)cc1NC(=O)c1cnc(SC)nc1-c1ccccc1 sits?
criterion met

Does this molecule meet the criterion survival < 80%? O=C(c1noc2c1CCCCC2)N1CCN(c2ccc(Cl)cc2)CC1
criterion not met

Find out if reported survival for O=C(/C(=C\c1ccc(F)cc1)n1ccccc1=O)N1CCCC1 is less than 80%
criterion not met

Please indicate whether the reported survival of O=C(COC(=O)c1ccccc1Cl)Nc1nccs1 is strictly below 80%.
criterion not met

I'd appreciate it if you could check whether Cc1ccc(Nc2cc(C)c(C#N)c3nc4ccccc4n23)cc1Cl has survival smaller than 80%.
criterion not met

----------
tested on: DeltatarO mutant; assay: S. aureus survival, RN4220 and DeltatarO strains – OD600, teichoic acid synthesis inhibitors, primary screen (AID 463173); conditions: S. aureus RN4220 wild type/DeltatarO growth, OD600, 18 h, hits give low values, screened at 18.75 µg/mL (by protocol)
About 4,300 (8.3%) of roughly 52,000 compounds were called active. For the sample, actives were picked, then their nearest neighbours and some compounds at random.
Hi there, I'd appreciate the recorded survival for every entry that follows.
Write the answer as a number in %, unit excluded.

# molecule CCS(=O)(=O)N1CCCc2cc(C(=O)Nc3cccc(C(C)=O)c3)ccc21 ; its survival = 89

// sample CC1CCc2nc3ncn(Cc4cccc(F)c4)c(=O)c3cc2C1 (configuration not stated) , its survival was 102

Measured survival, Cc1ccc2nc(-c3ccc(Cl)c(NC(=O)COc4ccc(C(C)C)cc4)c3)oc2c1 : 42

For record Cc1ccc(S(=O)(=O)Nc2cc3c(cc2Cl)n(C)c(=O)c(=O)n3C)cc1 the listed survival is 83

The recorded survival for entry CN(Cc1ccccc1)C(=O)CSc1nc2ccccc2n1Cc1ccccc1F equals 86

Input O=C(Nc1ccc(Br)cc1)C1CCCN1S(=O)(=O)c1ccc(F)cc1 (configuration not stated) . Output survival: 66

The reported value for O=C(NCCc1csc(-c2cccc(F)c2)n1)c1ccco1 in terms of survival is 94

Field survival (entry COc1ccc(CC(=O)NCCc2csc(-c3ccc(C(F)(F)F)cc3)n2)cc1 ) reads -5

Record Cc1[nH]c2ccc(-c3nnc(SCC(=O)N4c5ccccc5CCc5ccccc54)o3)cc2c1C , field survival: 89

survival reported for this molecule CCS(=O)(=O)N1CCc2cc(C(=O)Nc3cccc(NC(C)=O)c3)ccc21 : 42

Value of survival reported for the molecule COc1ccc(NC(=O)c2csnn2)cc1Cl is 86

// survival lookup, molecule = Cc1csc(N(C)C(=O)CSc2nnc(COc3cccc4ccccc34)o2)n1 , result: 56

Measured survival of CCc1ccccc1NC(=O)Nc1ccc2c(c1)N(CC)C(=O)c1ccccc1S2 : 41

So for CN1C(=O)c2ccccc2Sc2ccc(NC(=O)NCc3ccccc3Br)cc21 , the logged survival turned out to be 51

survival in this record for CCS(=O)(=O)N1CCc2cc(C(=O)Nc3ccc(C(=O)OC)cc3)ccc21 : 49

Measured survival of CC(C)c1ccc(OCC(=O)Nc2c(Cl)ccc3nsnc23)cc1 : 41

Just so you know, measured survival for Cc1ccc2nc(-c3ccc(Cl)c(NC(=O)c4cccc([N+](=O)[O-])c4C)c3)oc2c1 came out at 126

The recorded survival for NC(=O)CSc1nnc(COc2cccc3ccccc23)o1 is 89

Reported survival of N#CC1=C(N)Oc2c(c(=O)oc3ccccc23)C12C(=O)Nc1ccccc12 (configuration not stated) : 102

The reported value for Cc1ccc(Cn2cnc3nc4c(cc3c2=O)CC(C)CC4)cc1 (configuration not stated) in terms of survival is 20

Given item Cc1cccc(-c2nc(CCNC(=O)Cc3ccccc3)cs2)c1 , the value recorded as its survival is 17

The recorded survival for entry Cc1ccc(OCC(=O)Nc2c(Cl)ccc3nsnc23)cc1C equals 71

molecule N#CC1=C(N)Oc2c(c(=O)oc3ccccc23)C1 , survival observed: 31

For reference, reported survival for CCOc1ccc(CC(=O)NCCc2csc(-c3ccc(C(F)(F)F)cc3)n2)cc1 stands at 77

Entry Cc1ccc2nc(-c3ccc(Cl)c(NC(=O)COc4ccc([N+](=O)[O-])cc4)c3)oc2c1 , survival reported as 54

Entry Cc1ccc2nc(-c3ccc(C)c(NC(=O)Cc4ccccc4)c3)oc2c1 ; survival = 77

Per the records, this molecule ( N#Cc1cc2c(ccc3ccccc32)oc1=O ) has survival equal to 71

// CCS(=O)(=O)N1CCc2cc(C(=O)Nc3cccc(C(C)=O)c3)ccc21 : survival value = 50

Given item CC1CCc2nc3ncn(Cc4ccc(Cl)cc4)c(=O)c3cc2C1 (configuration not stated) , the value recorded as its survival is 85

Looking up COc1cccc(CNC(=O)Cn2c(=O)oc3cc(S(=O)(=O)N4CCCC4)ccc32)c1 , I see its survival listed as 122

Noted for COc1ccc(CCC(=O)NCCc2csc(-c3ccc(C(F)(F)F)cc3)n2)cc1 : its survival reads 73

GET /value?item= O=C(COc1ccccc1)Nc1c(Cl)ccc2nsnc12 &field=survival returns 74
